Examples of molecules with documented Percent Effect follow.
Molecular target: Ubiquitin-activating enzyme e1, putative (Leishmania donovani (strain BPK282A1))
Sequence (whole entry): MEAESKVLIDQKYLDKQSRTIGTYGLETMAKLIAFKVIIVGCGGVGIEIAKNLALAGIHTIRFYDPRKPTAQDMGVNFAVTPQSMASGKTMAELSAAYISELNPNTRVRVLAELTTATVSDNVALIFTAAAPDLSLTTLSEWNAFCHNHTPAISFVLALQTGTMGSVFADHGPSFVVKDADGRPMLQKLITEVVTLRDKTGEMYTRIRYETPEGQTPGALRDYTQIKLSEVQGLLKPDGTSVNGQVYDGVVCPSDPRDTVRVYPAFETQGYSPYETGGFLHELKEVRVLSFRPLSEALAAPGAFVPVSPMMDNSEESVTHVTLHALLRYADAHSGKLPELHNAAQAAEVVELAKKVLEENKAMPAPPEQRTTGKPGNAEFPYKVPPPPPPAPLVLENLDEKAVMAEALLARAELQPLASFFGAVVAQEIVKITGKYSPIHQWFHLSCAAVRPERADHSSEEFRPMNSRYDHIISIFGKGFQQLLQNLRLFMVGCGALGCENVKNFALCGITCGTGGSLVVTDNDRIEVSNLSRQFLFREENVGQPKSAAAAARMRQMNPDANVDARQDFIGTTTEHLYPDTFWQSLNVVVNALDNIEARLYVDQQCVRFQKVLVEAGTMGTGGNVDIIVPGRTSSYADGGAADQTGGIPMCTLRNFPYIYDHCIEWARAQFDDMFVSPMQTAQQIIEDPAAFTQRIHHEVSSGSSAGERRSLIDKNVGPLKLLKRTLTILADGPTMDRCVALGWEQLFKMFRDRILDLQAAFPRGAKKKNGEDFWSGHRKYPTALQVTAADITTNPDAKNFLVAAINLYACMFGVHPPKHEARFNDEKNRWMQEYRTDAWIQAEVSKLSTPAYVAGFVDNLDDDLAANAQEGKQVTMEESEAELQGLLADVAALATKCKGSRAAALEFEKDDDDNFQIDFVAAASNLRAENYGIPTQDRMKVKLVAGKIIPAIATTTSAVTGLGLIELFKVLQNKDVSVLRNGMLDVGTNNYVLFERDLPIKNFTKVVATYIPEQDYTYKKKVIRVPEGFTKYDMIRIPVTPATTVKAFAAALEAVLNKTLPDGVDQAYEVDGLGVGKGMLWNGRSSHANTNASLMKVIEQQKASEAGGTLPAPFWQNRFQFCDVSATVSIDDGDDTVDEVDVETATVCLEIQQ
Experiment: Leishmania donovani Ubiquitin Activating Enzyme (LdE1)
Type: functional
Set-up: scale not given: direction of the effect not stated beside the values
Details: 30 µM
Potency and affinity values are given separately.
Give a bare numeral; the unit % is implied.

As a guide, the following entries are already answered.
MOLECULE: c1ccc(-c2noc(CN3CCC(c4ccn[nH]4)CC3)n2)cc1
Percent Effect (%): -8.11
--
MOLECULE: COCCc1noc(CN(C)C2CCCN(c3ccc(C)nn3)C2)n1 (stereo not drawn)
Percent Effect (%): 2.67
--
MOLECULE: O=C(c1cc(COc2ccc3c(c2)OCO3)[nH]n1)N1CC=CC1CO (stereo not drawn)
Percent Effect (%): -2.74
--
MOLECULE: Cc1c(C)n(-c2ccccn2)c2nc3c(c(N)c12)CCCC3
Percent Effect (%): -14.7
--
MOLECULE: Cc1noc(CN(Cc2ccc3c(c2)OCO3)Cc2ccc(C)o2)n1
Percent Effect (%): 13.5

Next, consider the following molecule.
Qu. Read off the recorded Percent Effect for `COCCNS(=O)(=O)c1cccc2c1CN(C(=O)c1ccccc1)CC2`
Ans. -4.17

Source: ChEMBL document CHEMBL3988442
